Every entry's value here was drawn from patent US12377079B2.

Reported values of MIC for individual entries
System: E. coli urine isolate EC236
Experiment: Minimum inhibitory concentration (MIC)
Condition: Escherichia coli, read-out: Minimum inhibitory concentration (MIC)
Value expressed in µg/mL; do not type the unit.

Would you please look over these solved cases?
# Molecule, MIC (µg/mL)
rows = [
    ("Cc1nnc(SCC2=NN(c3nc4ccccc4[nH]3)C(=O)C2)s1", 96),
    ("Clc1cc(Br)ccc1-c1ccc(CNCC2CCNCC2)o1", 96),
]

Now look at this one.
IN: Which MIC value is on record for C[C@H]1COc2c(N3CCN(C)CC3)c(F)cc3c(=O)c(C(=O)O)cn1c23 [Lev, levofloxacin, reference compound] ?
OUT: 0.015
